Test system: S. aureus ATCC 25923
Assay: Antibacterial activity, post-exposure on preformed 18-h-old biofilms
Format: cell-based, Staphylococcus aureus
Conditions: 200 µM, ± SD
Method: For the post-exposure experiment, bacteria were grown with no compounds in the same conditions for 18 h, after which the media was changed, and compounds were added on the preformed biofilms. […] The resazurin staining was performed according to the protocol previously optimized with a few modifications.[46] […] Fluorescence was measured at λex = 560 nm and λem = 590 nm using the top optics of the Varioskan LUX Multimode microplate reader. […] Fluorescence was measured as described for the planktonic solution. […]
Entries and their measured Average inhibition %, biofilms viability follow.
Observable: Average inhibition %, biofilms viability (%)

molecule=CCCCCCCCCCc1ccc2nc(CCC(N)(CO)CO)ccc2c1 u=% numeric_value=20.1
molecule="CCCCCCCCCCc1ccc(C(O)CC(N)(CO)CO)cc1 (stereo not drawn)" u=% numeric_value=94
molecule=CCCCCCCCc1ccc2ccc(CC(N)(CO)CO)nc2c1 u=% numeric_value=100.2
molecule=CCCCCCCCc1ccc(CC(N)(CO)CO)cc1 u=% numeric_value=98.5
molecule=CCCCCCCCCCc1ccc2nc(CC(N)(CO)CO)ccc2c1 u=% numeric_value=58.6
molecule=CCCCCCCCc1cccc(CCC(N)(CO)CO)c1 u=% numeric_value=75.7
